target: Serine/threonine-protein kinase B-raf (Homo sapiens, UniProt P15056, V600E); assay: Inhibition of recombinant Braf V600E mutant
Sequence (P15056 2-766 V600E limits assumed): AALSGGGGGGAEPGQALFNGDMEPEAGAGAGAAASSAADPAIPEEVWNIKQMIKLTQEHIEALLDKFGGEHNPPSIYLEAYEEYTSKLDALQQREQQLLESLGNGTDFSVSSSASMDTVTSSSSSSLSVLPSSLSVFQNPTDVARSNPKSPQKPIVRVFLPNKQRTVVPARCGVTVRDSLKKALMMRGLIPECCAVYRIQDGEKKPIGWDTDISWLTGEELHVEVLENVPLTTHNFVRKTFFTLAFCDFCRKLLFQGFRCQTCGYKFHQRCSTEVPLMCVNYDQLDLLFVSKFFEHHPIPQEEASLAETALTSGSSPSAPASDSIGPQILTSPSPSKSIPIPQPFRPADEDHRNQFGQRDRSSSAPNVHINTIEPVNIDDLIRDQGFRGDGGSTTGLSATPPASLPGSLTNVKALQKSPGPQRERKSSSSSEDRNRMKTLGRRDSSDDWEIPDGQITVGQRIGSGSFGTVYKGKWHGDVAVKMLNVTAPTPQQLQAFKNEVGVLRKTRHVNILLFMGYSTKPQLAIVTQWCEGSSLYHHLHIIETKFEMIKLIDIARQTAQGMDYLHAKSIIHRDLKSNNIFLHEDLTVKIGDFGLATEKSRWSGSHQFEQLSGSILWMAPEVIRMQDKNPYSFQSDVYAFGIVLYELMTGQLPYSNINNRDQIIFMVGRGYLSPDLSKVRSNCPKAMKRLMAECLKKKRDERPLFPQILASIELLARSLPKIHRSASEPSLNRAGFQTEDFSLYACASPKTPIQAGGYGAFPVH
Measured pIC50, listed per entry for reference.
Please keep in mind that pIC50 is minus log10 of the molar concentration; only the number is needed.

Solved cases below.
Smiles Entry | pIC50
Cc1ccc2c(Nc3ccc(Cl)cc3)nccc2c1Nc1ncccc1-c1ccncn1 | 8.47
CNc1ncc2cc(-c3c(C)ccc4c(Nc5ccc6c(c5)NC(=O)C6(C)C)nccc34)ccc2n1 | 7.68
Cc1ccc(C(=O)Nc2cccc(C(F)(F)F)c2)cc1Nc1ncccc1-c1ccncn1 | 9.34
CNc1ncc2cc(-c3cc(C(=O)Nc4cccc(C(F)(F)F)c4)ccc3C)ccc2n1 | 8.77

Now let's try a different one.
Query string: What value of pIC50 has been recorded for this entry: CNc1cc(-c2cccnc2Nc2c(C)ccc3c(Nc4ccc(Cl)cc4)nccc23)ncn1
Result string: 7.25
